# Test system: Hs 936.T(C1)
# assay_method_text: cells
# Parameters: species or system panel of human cancer cell lines; Eurofins OncoPanel proliferation; nuclei count by high-content fluorescence imaging, 10-point dose response
# condition_parameters: 72 h; cell count, curve inflection point, 3 days
pEC50: −log10 of the molar value.
measured_quantity: pEC50

Query block: Tell me its pEC50 given C[C@@H]1CC(=O)NN=C1c1ccc(NN=C(C#N)C#N)cc1 [levosimendan] as the entry.
Result block: < 4.00
